Source of measurements: BindingDB's records for doi:10.1016/j.ejmech.2010.08.026

study_target: Purine nucleoside phosphorylase (Plasmodium falciparum, UniProt Q8T9Z7)
Sequence (Q8T9Z7 whole entry): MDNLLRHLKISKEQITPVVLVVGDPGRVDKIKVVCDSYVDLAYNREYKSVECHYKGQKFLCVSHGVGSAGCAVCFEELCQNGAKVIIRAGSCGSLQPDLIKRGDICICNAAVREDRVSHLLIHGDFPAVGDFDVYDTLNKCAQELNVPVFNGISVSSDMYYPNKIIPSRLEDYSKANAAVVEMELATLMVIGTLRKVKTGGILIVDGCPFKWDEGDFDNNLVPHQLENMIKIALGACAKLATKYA

| smiles_string | IC50 |
| --- | --- |
| O=c1[nH]c(O)c(Cc2ccccc2)c(=O)[nH]1 | > 1 mM |
